# Test system: B. subtilis ATCC 6633
# test-protocol: direct antimicrobial activity (disc-diffusion)
# Assay type: cell-based
# experimental-context: Bacillus subtilis, ATCC6633; 0.4 mg per disc, 9 mm disc (linezolid 0.03 mg, 6 mm disc); - no zone; read-out: Diameter of inhibition zone
experimental-endpoint: zone of inhibition at 0.4 mg/disc (mm)
Answer in mm, number only, no unit symbol.

Incoming: What value of zone of inhibition at 0.4 mg/disc has been reported for the following molecule? OB(O)c1ccc(Br)c(B(O)O)c1
Outgoing: 22

Incoming: Bench note: what zone of inhibition at 0.4 mg/disc did CC(=O)NC[C@H]1CN(c2ccc(N3CCOCC3)c(F)c2)C(=O)O1 [LIN, linezolid, reference compound] show?
Outgoing: 30

Incoming: Give its zone of inhibition at 0.4 mg/disc value. Item: OB(O)c1ccc(C(F)(F)F)cc1B(O)O
Outgoing: 22

Incoming: What measured zone of inhibition at 0.4 mg/disc goes with OB(O)c1cc(F)c(F)c(B(O)O)c1 ?
Outgoing: 15

Incoming: Can you look up the measured zone of inhibition at 0.4 mg/disc of OB(O)c1cc(Br)c(B(O)O)cc1Br for me?
Outgoing: 18
